test.target: HLA-DR4(B1*0401) (Homo sapiens, UniProt P01903+P01911, A100K/A169T/F76Y/I96L/K127E/L162R/M171V/N62H/P40V/Q125Y/R42H/S133A/S149N/S66Y/V115G/V209L/W38E)
measurement.description: HLA-DR4 competition peptide binding assay
condition.notes: Table 2; competition with biotinylated HA307-319 (Y309F) 50 nM, purified HLA-DR4 30 nM, pH 5, 48 h, room temperature; read-out: HLA-DR binding IC50
No end group written: not given here.
endpoint: IC50 (nM)

Take a look at these entries with their results.
Entry ASFTLASSETGVG [Compound 10] , IC50 reported as 100

Entry RSFTLASSETGAG [Compound 21] , IC50 reported as 60

Entry RSFTLASSETGVA [Compound 22] , IC50 reported as 50

Entry RSFALASSETGVG [Compound 13] , IC50 reported as 60

Entry RSFTLAASETGVG [Compound 16] , IC50 reported as 50

[a] RSFTAASSETGVG [Compound 14]
[b] RSFTLASSATGVG [Compound 18]
Between a and b , which one has the lower reported IC50 value? Which one? Tell me its label.
b
(b: 40 nM, a: 80 nM)

###

test.target: HLA-DR4(B1*0401) (Homo sapiens, UniProt P01903+P01911, A100K/A169T/F76Y/I96L/K127E/L162R/M171V/N62H/P40V/Q125Y/R42H/S133A/S149N/S66Y/V115G/V209L/W38E)
measurement.description: HLA-DR4 competition peptide binding assay
condition.notes: Figure 1; competition with biotinylated HA307-319 (Y309F) 50 nM, purified HLA-DR4 30 nM, pH 5, 48 h, room temperature; read-out: DRB1*0401 binding IC50
Non-standard residues stand in square brackets, D forms with d. Residues, ends and D or L forms follow the SMILES beside them. Phe(4-F) = N[C@@H](Cc1ccc(F)cc1)C(=O)O; 3Pal = N[C@@H](Cc1cccnc1)C(=O)O; 2Thi = N[C@@H](Cc1cccs1)C(=O)O
Recorded pIC50 by entry
Note on pIC50: it is the negative log10 of concentration, concentration in mol/L.

Take a look at these entries with their results.
Entry CC(C)C[C@H](NC(=O)[C@@H](NC(=O)[C@H](Cc1cccs1)NC(=O)[C@H](CO)NC(=O)[C@@H](N)CCCNC(=N)N)[C@@H](C)O)C(=O)N[C@@H](C)C(=O)N[C@@H](CO)C(=O)N[C@@H](CO)C(=O)N[C@@H](CCC(=O)O)C(=O)N[C@H](C(=O)NCC(=O)N[C@H](C(=O)NCC(=O)O)C(C)C)[C@@H](C)O [Compound 26] (H-RS[2Thi]TLASSETGVG-OH) , pIC50 reported as 8.05

Entry CC(C)C[C@H](NC(=O)[C@@H](NC(=O)[C@H](Cc1ccc(F)cc1)NC(=O)[C@H](CO)NC(=O)[C@@H](N)CCCNC(=N)N)[C@@H](C)O)C(=O)N[C@@H](C)C(=O)N[C@@H](CO)C(=O)N[C@@H](CO)C(=O)N[C@@H](CCC(=O)O)C(=O)N[C@H](C(=O)NCC(=O)N[C@H](C(=O)NCC(=O)O)C(C)C)[C@@H](C)O [Compound 30] (H-RS[Phe(4-F)]TLASSETGVG-OH) , pIC50 reported as 7.92

Now for the molecule whose pIC50 we want.
Entry CC(C)C[C@H](NC(=O)[C@@H](NC(=O)[C@H](Cc1cccnc1)NC(=O)[C@H](CO)NC(=O)[C@@H](N)CCCNC(=N)N)[C@@H](C)O)C(=O)N[C@@H](C)C(=O)N[C@@H](CO)C(=O)N[C@@H](CO)C(=O)N[C@@H](CCC(=O)O)C(=O)N[C@H](C(=O)NCC(=O)N[C@H](C(=O)NCC(=O)O)C(C)C)[C@@H](C)O [Compound 29] (H-RS[3Pal]TLASSETGVG-OH) , pIC50 reported as 7.80
